Exercise: state measured MIC for each of the molecules provided.
Test system: Enterococcus faecalis
assay.overview: MIC measurement, Test Example 6 (enterococcus)
Type: cell-based
measurement.parameters: Enterococcus faecalis, E. faecalis 36-15688, quinolone-susceptible enterococci; read-out: MIC
Give the number; µg/mL is assumed, so skip it.

Give the reported MIC for this molecule. `C[C@@H]1CN(c2c(F)c(N)c3c(=O)c(C(=O)O)cn(C4CC4)c3c2F)C[C@H](C)N1`
0.5

Give the reported MIC for this molecule. `C[C@H]1COc2c(N3CCN(C)CC3)c(F)cc3c(=O)c(C(=O)O)cn1c23`
1

Give the reported MIC for this molecule. `CCn1cc(C(=O)O)c(=O)c2cc(F)c(N3CCNCC3)cc21`
2

Give the reported MIC for this molecule. CC1COc2c(N3CCN(C)CC3)c(F)cc3c(=O)c(C(=O)O)cn1c23 (stereo not shown)
2

====

System: Enterococcus faecalis
assay.overview: MIC measurement, Test Example 6 (enterococcus)
Format: cell-based
measurement.parameters: Enterococcus faecalis, E. faecalis 36-15720, quinolone-susceptible enterococci; read-out: MIC
Where a name gives a salt, the structure may show the parent alone.
readout.label: MIC (µg/mL)
Give the number; µg/mL is assumed, so skip it.

Give the reported MIC for this molecule. `C[C@@H]1CN(c2c(F)c(N)c3c(=O)c(C(=O)O)cn(C4CC4)c3c2F)C[C@H](C)N1`
1

Give the reported MIC for this molecule. NC1CCN(c2nc3c(cc2F)c(=O)c(C(=O)O)cn3-c2ccc(F)cc2F)C1 (stereo not shown) [TFLX, tosufloxacin tosylate]
0.5

Give the reported MIC for this molecule. `CCn1cc(C(=O)O)c(=O)c2cc(F)c(N3CCNCC3)cc21`
8

Give the reported MIC for this molecule. CC1COc2c(N3CCN(C)CC3)c(F)cc3c(=O)c(C(=O)O)cn1c23 (stereo not shown)
2

Give the reported MIC for this molecule. `C[C@H]1COc2c(N3CCN(C)CC3)c(F)cc3c(=O)c(C(=O)O)cn1c23`
1

====

Exercise: state measured MIC for each of the molecules provided.
System: VISA clinical isolates of MRSA (VI-MRSA) and of MSSA (VI-MSSA)
assay.overview: microbe, parasite or virus in culture
Format: cell-based, Staphylococcus aureus
measurement.parameters: Staphylococcus aureus, HIP09433, VI-MRSA, America
In your response, the unit should come after the numeric value.

Provide MIC, recorded with VISA clinical isolates of MRSA (VI-MRSA) and of MSSA (VI-MSSA), of Cc1cc(=O)n2c3c(c4c(cc13)c(CO)cc(=O)n4C)OC2 [NM, nybomycin]
1 µg/mL

Provide MIC, recorded with VISA clinical isolates of MRSA (VI-MRSA) and of MSSA (VI-MSSA), of CC1COc2c(N3CCN(C)CC3)c(F)cc3c(=O)c(C(=O)O)cn1c23 (stereo not drawn) [OFLX, ofloxacin]
64 µg/mL

Provide MIC, recorded with VISA clinical isolates of MRSA (VI-MRSA) and of MSSA (VI-MSSA), of Cc1onc(-c2ccccc2)c1C(=O)N[C@@H]1C(=O)N2[C@@H]1SC(C)(C)[C@@H]2C(=O)O [OXA, oxacillin]
256 µg/mL

====

Exercise: state measured MIC for each of the compounds provided.
Test system: Enterococcus faecalis
assay.overview: MIC measurement, Test Example 6 (enterococcus)
Type: cell-based
measurement.parameters: Enterococcus faecalis, E. faecalis 36-15696, quinolone-susceptible enterococci; read-out: MIC
Where a name gives a salt, the structure may show the parent alone.
Give the number; µg/mL is assumed, so skip it.

Give the reported MIC for this compound. `CCn1cc(C(=O)O)c(=O)c2cc(F)c(N3CCNCC3)cc21`
4

Give the reported MIC for this compound. `C[C@H]1COc2c(N3CCN(C)CC3)c(F)cc3c(=O)c(C(=O)O)cn1c23`
1

Give the reported MIC for this compound. CC1COc2c(N3CCN(C)CC3)c(F)cc3c(=O)c(C(=O)O)cn1c23 (stereo not shown)
2

Give the reported MIC for this compound. NC1CCN(c2nc3c(cc2F)c(=O)c(C(=O)O)cn3-c2ccc(F)cc2F)C1 (stereo not shown) [TFLX, tosufloxacin tosylate]
0.25

Give the reported MIC for this compound. `C[C@@H]1CN(c2c(F)c(N)c3c(=O)c(C(=O)O)cn(C4CC4)c3c2F)C[C@H](C)N1`
0.5
